Cited source for all entries: ChEMBL document CHEMBL2401707

# System: Escherichia coli
# assay.remarks: Antibacterial activity against Escherichia coli assessed as survival after 24 hrs by MTT assay
# Format: functional, organism-based
measured.quantity: IC50 (µg/mL)
Your answer should be a plain number; it is taken to be in µg/mL.

Before answering, review these 3 worked examples.
molecule	IC50 / µg/mL
NC[C@H]1O[C@H](O[C@H]2[C@H](O)[C@@H](O[C@H]3O[C@H](CO)[C@@H](O)[C@H](N)[C@H]3O)[C@H](N)C[C@@H]2N)[C@H](O)[C@@H](O)[C@@H]1O	47.3
CC(O)Cn1c([N+](=O)[O-])cnc1/C=C/c1ccc(Cl)cc1 (configuration not stated)	102
CC(O)Cn1c([N+](=O)[O-])cnc1/C=C/c1ccccc1[N+](=O)[O-] (configuration not stated)	40.3

Recorded result, CC(O)Cn1c([N+](=O)[O-])cnc1/C=C/c1ccccc1Cl (configuration not stated) , IC50: 56.3

The molecule listed as CC(O)Cn1c([N+](=O)[O-])cnc1/C=C/c1cccc(F)c1 (configuration not stated) shows IC50 equal to 120

Recorded IC50 (molecule CC(O)Cn1c([N+](=O)[O-])cnc1/C=C/c1ccc(Br)cc1 (configuration not stated) ): 50.8

----------
# assay.remarks: Cytotoxicity against human macrophages assessed as cell viability after 24 hrs by MTT assay
# Assay type: cell-based, Macrophage
Item-by-item account of CC50 at 24 h

Worked examples follow.
compound	experimental.result
CC(O)Cn1c([N+](=O)[O-])cnc1/C=C/c1ccccc1Br (stereo not given)	490 nM
COc1cccc(/C=C/c2ncc([N+](=O)[O-])n2CC(C)O)c1 (stereo not given)	1300 nM
CC(O)Cn1c([N+](=O)[O-])cnc1/C=C/c1ccc(N(C)C)cc1 (stereo not given)	680 nM
CC(O)Cn1c([N+](=O)[O-])cnc1/C=C/c1cccc([N+](=O)[O-])c1 (stereo not given)	430 nM
CC(O)Cn1c([N+](=O)[O-])cnc1/C=C/c1ccccc1[N+](=O)[O-] (stereo not given)	1090 nM
CC(O)Cn1c([N+](=O)[O-])cnc1/C=C/c1cccc(F)c1 (stereo not given)	1030 nM

Given item CC(O)Cn1c([N+](=O)[O-])cnc1/C=C/c1ccc(F)cc1 (stereo not given) , the value recorded as its CC50 at 24 h is 420 nM

// sample CC(O)Cn1c([N+](=O)[O-])cnc1/C=C/c1ccccc1Cl (stereo not given) , its CC50 at 24 h was 480 nM

Value of CC50 at 24 h reported for the compound CC(O)Cn1c([N+](=O)[O-])cnc1/C=C/c1cccc(Br)c1 (stereo not given) is 620 nM

Per the record, CC(O)Cn1c([N+](=O)[O-])cnc1/C=C/c1ccc(Cl)cc1 (stereo not given) has CC50 at 24 h of 980 nM

----------
# Test system: Escherichia coli
# assay.remarks: Antibacterial activity against Escherichia coli assessed as survival after 24 hrs by MTT assay
# Assay type: functional, organism-based
Below, each entry is listed with its recorded IC50.
Hi! Could you send only the number? It should be in µg/mL, unit omitted.

compound	units.label	IC50
CC(O)Cn1c([N+](=O)[O-])cnc1/C=C/c1ccc2ccccc2c1 (stereo not given)	µg/mL	108
CC(O)Cn1c([N+](=O)[O-])cnc1/C=C/c1ccc(N(C)C)cc1 (stereo not given)	µg/mL	108
COc1ccccc1/C=C/c1ncc([N+](=O)[O-])n1CC(C)O (stereo not given)	µg/mL	78.6

Per the record, CC(O)Cn1c([N+](=O)[O-])cnc1/C=C/c1ccc([N+](=O)[O-])cc1 (stereo not given) has IC50 of 36.8
